Some variants, each annotated with its measured abundance fitness.
B1: Cyclin-F, residues 28 to 80; numbered along this chain, P41002 (parent)
chain: RNLTILSLPEDVLFHILKWLSVEDILAVRAVHSQLKDLVDNHASVWACASFQE

Variants of: B1
Assay: abundance fitness (aPCA) (normalised: wild type 0, dead -1); higher = more abundant; growth selection in yeast, the domain comes from the species named
Settings: Homo sapiens

Solved cases below.
>>> endpoint_value("I5L")
0.12
>>> endpoint_value("V22E")
-0.285
>>> endpoint_value("K18Y")
-0.505

Prompt: Entry L3I needs its abundance fitness filled in; supply it.
Completion: -0.112

Prompt: Entry P9I needs its abundance fitness filled in; supply it.
Completion: -0.847

Prompt: Entry I5T needs its abundance fitness filled in; supply it.
Completion: -0.697

Prompt: Entry A49R needs its abundance fitness filled in; supply it.
Completion: 0.037

Prompt: Entry D24S needs its abundance fitness filled in; supply it.
Completion: -0.882
